Hey, just so you know, these numbers are from ChEMBL document CHEMBL1201862.

Here the recorded GI50 is given for each entry.
# System: NCI-H226
# experiment: NCI tumour cell line growth inhibition, 48 h
Activity calls are given as the source filed them. Rule as the data show it: active = GI50 up to about 1.1 µM and inactive = higher.
quantity: GI50

Cc1ccc(/N=N/N(C)C(=O)C(C)N)cc1 (stereo not given) ... > 100 µM (inactive)
ClC1CCC2OOC1O2 (stereo not given) ... > 100 µM (inactive)
COc1ccc(C(=O)OCC2OC(n3cnc4c(=S)nc[nH]c43)C(OC(=O)c3ccc(OC)cc3)C2OC(=O)c2ccc(OC)cc2)cc1 (stereo not given) ... 30.1 µM (inactive)
O=C(NCCCc1cn[nH]c(=O)n1)c1cccc2nc3ccccc3nc12 ... > 100 µM (inactive)
CC(=C(C(N)=O)C(N)=O)C1C=C(c2cccs2)CC(c2ccc(Cl)cc2)=C1O (stereo not given) ... 73.6 µM (inactive)
NC(=S)N/N=C(\CCC(=O)Nc1ccccc1[N+](=O)[O-])CC(=O)c1ccco1 ... > 100 µM (inactive)
Cc1cc(C)nc(NS(=O)(=O)c2ccc(Nc3c4ccccc4nc4c(C(=O)Nc5ccc(S(=O)(=O)Nc6cc(C)on6)cc5)cccc34)cc2)n1 ... 21 µM (inactive)
COc1ccc(C2C3CCCC(C3=O)C(c3ccc(OC)cc3)N2N=O)cc1 (stereo not given) ... 23.3 µM (inactive)
C#CCOC(=O)[C@@H](C)c1ccc2cc(OC)ccc2c1 ... > 100 µM (inactive)
Oc1c(Br)cc(CN(Cc2cc(Br)c(O)c(Br)c2)C2CCCCC2)cc1Br ... > 100 µM (inactive)
O=[N+]([O-])C(=C(\Cl)NCCO)/C(Cl)=C(/Cl)Br ... 6.73 µM (inactive)
CCC1CN2CCC3(c4ccccc4)CC(C(=O)OC)=CC1C23 (stereo not given) ... 17 µM (inactive)
COC1/C=C\C=C(/C)C(=O)NC2=CC(=O)C=C(C2=O)C(OC)C(C)CC(OC)C(OC)C(C)/C=C(/C)C1OC(N)=O (stereo not given) ... 21.8 µM (inactive)
NC(=O)Cc1nc2c(N)ncnc2n1C1OC(CO)C(O)C1O (stereo not given) ... > 100 µM (inactive)
Cn1nnc2c(C(N)=S)ncn2c1=O ... > 100 µM (inactive)
C[C@H](CCC(=O)O)[C@H]1CC[C@H]2[C@@H]3[C@H](O)C[C@@H]4C[C@H](O)CC[C@]4(C)[C@H]3C[C@H](O)[C@]12C ... > 100 µM (inactive)
CCOC(=O)c1c(NC(=S)Nc2ccc(C)cc2)sc2c1CCN(C)C2 ... > 100 µM (inactive)
CC(C)(CCl)NC(=O)c1cccc(C(=O)NC(C)(C)CCl)n1 ... > 100 µM (inactive)
Cc1ccc(S(=O)(=O)NNC(=O)Nc2cccc(C(F)(F)F)c2)cc1 ... 44.7 µM (inactive)
OCCN(CCO)c1ncnc2[nH]cnc12 ... > 100 µM (inactive)

----------
# System: SK-MEL-2
# experiment: NCI tumour cell line growth inhibition, 48 h
The source made the active and inactive calls. No stated cut-off is given here; in the data, active = GI50 up to about 1.1 µM and inactive = higher.
Labels: Yes = active, No = inactive

FC1=C2CCCCCC2SC1(F)F (stereo unspecified) ... No
COC(=O)C(=O)C(C(C)=O)C(=O)NCc1ccccc1 (stereo unspecified) ... No
Cc1cn2c(=O)c3ccccc3nc2s1 ... No
O=C(/C=C/c1c(O)ccc2ccccc12)c1cccc2ccccc12 ... No
CCCN(CCC)C(=S)N/N=C/c1cccc(C)n1 ... Yes
CC1C(c2ccc(N(C)C)cc2)c2cc3c(cc2OC1N1CCCC1)OCO3 (stereo unspecified) ... No
C1COC(NC(C2CC2)C2CC2)=N1 [RILMENIDINE] ... No
COC(=O)c1nc(-c2ccc3c(n2)C(=O)C(=N)C(OC)=C3O)c(N)c(-c2ccc(OC)c(OC)c2O)c1C ... No
O=C1c2ccccc2C(=O)C1(O)c1c[nH]c2ccccc12 ... No
COC(=O)C1(C)OC(C)=NC1(C(=O)OC)C(=O)OC (stereo unspecified) ... No
CC[C@H](C)[C@@H]([C@@H](CC(=O)N1CCC[C@H]1[C@H](OC)[C@@H](C)C(=O)NCCc1ccccc1)OC)N(C)C(=O)C(NC(=O)[C@H](C(C)C)N(C)C)C(C)C (stereo partly specified) ... Yes
